// fold decrease in KD against the parental mAb M159 lookup, one value per entry
- Target: T1, Human CD27 ECD truncated (ECD 1-121, cleavage site, His6) (human)
- T1 construct: also called human CD27 ECD with His Tag; CD27-His
- T1 chain: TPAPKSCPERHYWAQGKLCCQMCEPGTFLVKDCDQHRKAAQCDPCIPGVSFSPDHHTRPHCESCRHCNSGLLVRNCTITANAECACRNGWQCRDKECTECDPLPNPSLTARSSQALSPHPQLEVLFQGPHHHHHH
- Procedure summary: ProteOn SPR, culture supernatants
Provide the reading as a plain figure in fold.

Ask | Give fold decrease in KD against the parental mAb M159 for M149 (antibody, human IgG4, V domains shown, also called H25,L219) VH: QVQLVQSGAEVKKPGASVKVSCKASGYAFSSSWMNWVRQAPGQGLEWMGRIYPGDGDTNYNGKFKGRVTMTRDTSTSTVYMELSSLRSEDTAVYYCARSDYYGDYGFAYWGQGTLVTVSS VL: DIQMTQSPSSLSASVGDRVTITCKASQSVDYAGDSFMNWYQQKPGKAPKLLIYAASNLESGVPSRFSGSGSGTDFTLTISSLQPEDFATYYCQQSNEDPYTFGQGTKVEIK
Reply | 4

Next binder, please.
Ask | For the binder M160 (antibody, human IgG4, V domains shown, also called H196,L219) VH: QVQLVQSGAEVKKPGASVKVSCKASGYAFSSSWMNWVRQAPGQGLEWMGRIYSGDGDTNYNGKFKGRVTMTRDTSTSTVYMELSSLRSEDTAVYYCARSDYYGDYGFAYWGQGTLVTVSS VL: DIQMTQSPSSLSASVGDRVTITCKASQSVDYAGDSFMNWYQQKPGKAPKLLIYAASNLESGVPSRFSGSGSGTDFTLTISSLQPEDFATYYCQQSNEDPYTFGQGTKVEIK , report fold decrease in KD against the parental mAb M159.
Reply | 20
